EXPERIMENT_SUMMARY: Effective permeability coefficient at pH 5 by PAMPA method
Type: ADME
TEST_CONTEXT: read-out: Peff
OBSERVATION_TYPE: Papp (×10⁻⁶ cm/s)
Use ×10⁻⁶ cm/s as the unit, but write only the number.

Value lookup for Papp; key = "NC(=O)c1sc2nccc(N3CCC[C@H](COCCO)C3)c2c1N" 2.8

----------
EXPERIMENT_SUMMARY: Effective permeability coefficient at pH 7.4 by PAMPA method
Format: ADME
TEST_CONTEXT: read-out: Peff
OBSERVATION_TYPE: Papp (×10⁻⁶ cm/s)
Answer in ×10⁻⁶ cm/s, number only, no unit symbol.

Report Papp for "NC(=O)c1sc2nccc(N3CCC[C@H](COCCO)C3)c2c1N" please. 2.9
